tgt: Thymidylate synthase (Lactobacillus casei)
Sequence (P00469 whole entry): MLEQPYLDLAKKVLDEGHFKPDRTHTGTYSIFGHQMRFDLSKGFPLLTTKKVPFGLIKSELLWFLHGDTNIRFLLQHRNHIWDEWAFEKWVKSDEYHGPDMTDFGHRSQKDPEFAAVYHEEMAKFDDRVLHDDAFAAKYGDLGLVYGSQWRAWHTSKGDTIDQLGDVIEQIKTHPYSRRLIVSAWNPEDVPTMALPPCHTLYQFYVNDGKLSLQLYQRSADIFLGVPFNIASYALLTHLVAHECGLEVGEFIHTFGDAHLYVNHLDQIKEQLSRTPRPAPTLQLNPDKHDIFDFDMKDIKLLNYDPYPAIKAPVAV
protocol-summary: In vitro inhibitory activity against Thymidylate synthase was evaluated
Parameters: species or system Lacticaseibacillus casei
assay-metric: Ki (µM)
Give your result in µM as a bare value.

Exercise: Please give the documented Ki of `CC1(C)CC(NC(=O)CSc2cn([C@H]3C[C@H](O)[C@@H](CO)O3)c(=O)[nH]c2=O)CC(C)(C)N1[O]`
Solution: 89
